system: Staphylococcus aureus; experiment: Antibacterial activity against Staphylococcus aureus ATCC25923 assessed as inhibition of bacterial growth incubated for 24 hrs by broth microdilution method; type: functional
measured.endpoint: MIC (µg/mL)
# number only, unit µg/mL dropped from output

Here is how some compounds turned out for MIC.
O=C(Nc1ccc(C2NCCc3c2[nH]c2ccccc32)cc1)c1cccc(Cl)c1 (stereo not given) : 16
O=C(Nc1ccc(C2NCCc3c2[nH]c2ccccc32)cc1)c1ccc(Br)cc1 (stereo not given) : 32
O=C(Nc1ccc(C2NCCc3c2[nH]c2ccccc32)cc1)c1ccc(Cl)cc1 (stereo not given) : 4
CN1CCc2c([nH]c3ccccc23)C1c1ccc(NC(=O)c2ccccc2F)cc1 (stereo not given) : 64

Query compound follows.
Please list MIC recorded for the compound COC(=O)c1ccc(C(=O)Nc2ccc(C3c4[nH]c5ccccc5c4CCN3C)cc2)cc1 (stereo not given) 64
